# Test system: ROR1 negative MCF7 cells
# experimentNotes: In vitro cell killing of ROR1 ADCs on MCF7
# Format: cell-based
# experimentalContext: Homo sapiens; Table 13; ROR1 negative MCF7, 120 hours; read-out: MCF-7 EC50

| smilesRecord | EC50 / nM |
| --- | --- |
| COc1cccc2c1C(=O)c1c(O)c3c(c(O)c1C2=O)C[C@@](O)(C(=O)NCCN)C[C@@H]3O[C@H]1C[C@H]2[C@H](O[C@@H]3[C@@H](OC)OCCN32)[C@H](C)O1 | 0.3 |
| CC[C@@]1(O)C(=O)OCc2c1cc1n(c2=O)Cc2c-1nc1cc(F)c(C)c3c1c2[C@@H](NC(=O)CN)CC3 | 0.169 |
